B1: library; a variant is named by its letters at N, in order (parent)
chain: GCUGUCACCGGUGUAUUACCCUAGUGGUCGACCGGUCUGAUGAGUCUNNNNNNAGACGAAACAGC

Variants of: B1
Assay: FACS-Seq fitted mean relative fluorescence mCherry/BFP without ligand (log10 relative fluorescence); ligand: hypoxanthine (xanthine aptamer); higher = higher reporter protein expression
Conditions: HEK293T, ligand present: no
REPORTED PROPERTY: FACS-Seq fitted mean (log10)
Please reply with the number alone, leaving off any unit.

Before answering, review these 8 worked examples.
GUCGCA: 0.304
GAUAAU: -0.0227
GAUUUA: 0.541
GGUGCG: 0.452
UUCUAA: 0.391
CCAAUG: 0.585
AUAAGG: 0.0649
AAGAAG: -0.35

Look up FACS-Seq fitted mean (log10) for this variant: `AUUUGA` 0.636

And then `AGCGUC` , what is it? 0.8

And then `GUAAAU` , what is it? 0.503

And then `CAAACC` , what is it? 0.631

And then `UAUUCA` , what is it? 0.158

And then `GUUUUG` , what is it? 0.498

And then `UACCAA` , what is it? -0.105

And then `UGAAAC` , what is it? -0.0117

And then `UUUUGA` , what is it? 0.455

And then `GAGGAA` , what is it? 0.318

And then `GUAAGA` , what is it? 0.291

And then `AGGACU` , what is it? 0.894

And then `ACUCUA` , what is it? 0.438

And then `CCGGGC` , what is it? 0.124

And then `GUCAUG` , what is it? 0.242

And then `GGGCCA` , what is it? 0.693

And then `GUGAAG` , what is it? 0.168

And then `GAUUGG` , what is it? -0.303

And then `GCUUUG` , what is it? -0.186

And then `CGUGGG` , what is it? 0.0862

And then `CAUGAG` , what is it? -0.0522

And then `AGCACC` , what is it? -0.563

And then `AGAACC` , what is it? 0.228
